target: the molecule itself; experiment: SEC
Kindly state stoichiometry N for each of the entries shown.
Please give only the number in your answer, with no unit.

// returns reported stoichiometry N for input DHO domain of human CAD, variant R1617Q (domain or fragment, UniProt P27708 1456-1846, looked up) MTSQKLVRLPGLIDVHVHLREPGGTHKEDFASGTAAALAGGITMVCAMPNTRPPIIDAPALALAQKLAEAGARCDFALFLGASSENAGTLGTVAGSAAGLKLYLNETFSELRLDSVVQWMEHFETWPSHLPIVAHAEQQTVAAVLMVAQLTQRSVHICHVAQKEEILLIKAAKARGLPVTCEVAPHHLFLSHDDLERLGPGKGEVRPELGSRQDVEALWENMAVIDCFASDHAPHTLEEKCGSRPPPGFPGLETMLPLLLTAVSEGRLSLDDLLQRLHHNPRRIFHLPPQEDTYVEVDLEHEWTIPSHMPFSKAHWTPFEGQKVKGTVRRVVLRGEVAYIDGQVLVPPGYGQDVRKWPQGAVPQLPPSAPATSEMTTTPERPRRGIPGLPD
2

// returns reported stoichiometry N for input DHO domain of human CAD, variant K1556T (domain or fragment, UniProt P27708 1456-1846, looked up) MTSQKLVRLPGLIDVHVHLREPGGTHKEDFASGTAAALAGGITMVCAMPNTRPPIIDAPALALAQKLAEAGARCDFALFLGASSENAGTLGTVAGSAAGLTLYLNETFSELRLDSVVQWMEHFETWPSHLPIVAHAEQQTVAAVLMVAQLTQRSVHICHVARKEEILLIKAAKARGLPVTCEVAPHHLFLSHDDLERLGPGKGEVRPELGSRQDVEALWENMAVIDCFASDHAPHTLEEKCGSRPPPGFPGLETMLPLLLTAVSEGRLSLDDLLQRLHHNPRRIFHLPPQEDTYVEVDLEHEWTIPSHMPFSKAHWTPFEGQKVKGTVRRVVLRGEVAYIDGQVLVPPGYGQDVRKWPQGAVPQLPPSAPATSEMTTTPERPRRGIPGLPD
2

// returns reported stoichiometry N for input DHO domain of human CAD, variant R1789Q (domain or fragment, UniProt P27708 1456-1846, looked up) MTSQKLVRLPGLIDVHVHLREPGGTHKEDFASGTAAALAGGITMVCAMPNTRPPIIDAPALALAQKLAEAGARCDFALFLGASSENAGTLGTVAGSAAGLKLYLNETFSELRLDSVVQWMEHFETWPSHLPIVAHAEQQTVAAVLMVAQLTQRSVHICHVARKEEILLIKAAKARGLPVTCEVAPHHLFLSHDDLERLGPGKGEVRPELGSRQDVEALWENMAVIDCFASDHAPHTLEEKCGSRPPPGFPGLETMLPLLLTAVSEGRLSLDDLLQRLHHNPRRIFHLPPQEDTYVEVDLEHEWTIPSHMPFSKAHWTPFEGQKVKGTVRRVVLQGEVAYIDGQVLVPPGYGQDVRKWPQGAVPQLPPSAPATSEMTTTPERPRRGIPGLPD
2

// returns reported stoichiometry N for input DHO domain of human CAD, variant R1722W (domain or fragment, UniProt P27708 1456-1846, looked up) MTSQKLVRLPGLIDVHVHLREPGGTHKEDFASGTAAALAGGITMVCAMPNTRPPIIDAPALALAQKLAEAGARCDFALFLGASSENAGTLGTVAGSAAGLKLYLNETFSELRLDSVVQWMEHFETWPSHLPIVAHAEQQTVAAVLMVAQLTQRSVHICHVARKEEILLIKAAKARGLPVTCEVAPHHLFLSHDDLERLGPGKGEVRPELGSRQDVEALWENMAVIDCFASDHAPHTLEEKCGSRPPPGFPGLETMLPLLLTAVSEGWLSLDDLLQRLHHNPRRIFHLPPQEDTYVEVDLEHEWTIPSHMPFSKAHWTPFEGQKVKGTVRRVVLRGEVAYIDGQVLVPPGYGQDVRKWPQGAVPQLPPSAPATSEMTTTPERPRRGIPGLPD
2
